tested on: Potassium voltage-gated channel subfamily KQT member 2/3 (Homo sapiens, UniProt O43525+O43526)
Sequence (O43526 whole entry): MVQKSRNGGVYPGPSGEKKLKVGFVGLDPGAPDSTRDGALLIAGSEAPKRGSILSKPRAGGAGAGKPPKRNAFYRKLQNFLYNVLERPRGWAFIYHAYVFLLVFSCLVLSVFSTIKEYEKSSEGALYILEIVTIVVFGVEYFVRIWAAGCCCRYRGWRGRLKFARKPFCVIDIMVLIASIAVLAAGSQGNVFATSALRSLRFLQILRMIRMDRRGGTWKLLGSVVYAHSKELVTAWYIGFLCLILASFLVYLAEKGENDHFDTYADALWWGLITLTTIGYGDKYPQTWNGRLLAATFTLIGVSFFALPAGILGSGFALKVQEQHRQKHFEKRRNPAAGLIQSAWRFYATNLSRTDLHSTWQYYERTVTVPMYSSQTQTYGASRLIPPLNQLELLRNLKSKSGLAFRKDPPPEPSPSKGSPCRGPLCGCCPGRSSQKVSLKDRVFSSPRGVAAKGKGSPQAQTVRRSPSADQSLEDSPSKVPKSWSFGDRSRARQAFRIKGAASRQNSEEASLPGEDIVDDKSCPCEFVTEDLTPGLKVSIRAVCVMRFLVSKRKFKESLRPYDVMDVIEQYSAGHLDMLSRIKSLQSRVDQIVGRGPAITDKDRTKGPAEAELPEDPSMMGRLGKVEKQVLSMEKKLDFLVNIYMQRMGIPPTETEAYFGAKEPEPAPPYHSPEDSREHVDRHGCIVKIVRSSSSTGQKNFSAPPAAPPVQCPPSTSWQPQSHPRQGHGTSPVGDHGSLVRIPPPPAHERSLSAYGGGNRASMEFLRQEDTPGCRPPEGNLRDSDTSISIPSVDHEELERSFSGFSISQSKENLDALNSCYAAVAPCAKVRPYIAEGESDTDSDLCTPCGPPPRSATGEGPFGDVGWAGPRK
Sequence (O43525 whole entry): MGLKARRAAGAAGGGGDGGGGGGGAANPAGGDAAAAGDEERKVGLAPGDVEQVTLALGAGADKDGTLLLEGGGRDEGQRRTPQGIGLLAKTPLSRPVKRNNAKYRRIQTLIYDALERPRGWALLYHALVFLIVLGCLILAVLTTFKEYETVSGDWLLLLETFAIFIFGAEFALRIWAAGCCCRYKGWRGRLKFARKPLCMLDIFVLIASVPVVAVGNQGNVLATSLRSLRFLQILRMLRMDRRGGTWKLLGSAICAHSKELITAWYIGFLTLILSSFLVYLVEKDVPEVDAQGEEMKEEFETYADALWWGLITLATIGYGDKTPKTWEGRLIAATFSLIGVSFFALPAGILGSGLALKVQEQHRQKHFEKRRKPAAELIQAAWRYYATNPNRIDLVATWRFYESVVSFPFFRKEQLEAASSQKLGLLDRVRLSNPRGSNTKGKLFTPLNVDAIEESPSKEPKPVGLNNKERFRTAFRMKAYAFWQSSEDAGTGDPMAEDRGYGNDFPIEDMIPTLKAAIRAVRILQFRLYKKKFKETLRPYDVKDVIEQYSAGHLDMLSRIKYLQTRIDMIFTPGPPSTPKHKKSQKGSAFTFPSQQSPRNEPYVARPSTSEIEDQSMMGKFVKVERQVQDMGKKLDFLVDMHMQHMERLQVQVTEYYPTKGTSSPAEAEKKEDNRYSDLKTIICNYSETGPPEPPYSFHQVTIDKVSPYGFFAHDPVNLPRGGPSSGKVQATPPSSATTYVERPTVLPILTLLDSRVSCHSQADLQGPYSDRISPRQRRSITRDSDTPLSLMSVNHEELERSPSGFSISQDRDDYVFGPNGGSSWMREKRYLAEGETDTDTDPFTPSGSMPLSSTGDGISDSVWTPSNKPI
assay summary: In Vitro Assay
pEC50: −log10 of the molar value.
measurement name: pEC50

Identify pEC50 associated with the compound CC1(C)CC1(C#N)COc1ccc2c(Nc3ccc(Cl)nc3)nccc2c1 (stereo unspecified) [US20240101531, Example 330]
> 6.00
